Consider the following compounds and their measured Relative ALP activity readings.
# Test system: hMSC-TERT
# Test settings: 1 μM inhibitor in osteogenic inducing media, 6 days after induction, hMSC-TERT
Give the figure by itself; no unit, no explanation.

| Compound | Value |
| --- | --- |
| COC[C@H]1OC(=O)c2coc3c2[C@@]1(C)C1=C(C3=O)[C@@H]2CCC(=O)[C@@]2(C)C[C@H]1OC(C)=O | 0.8301 |
| O=P(O)(O)C(O)c1ccc2ccccc2c1 (stereo not drawn) | 0.864 |
| Nc1ncnc2c1c(I)cn2[C@@H]1O[C@H](CO)[C@@H](O)[C@H]1O | 1.035 |
| COc1cc(/C=C(\C#N)C(N)=O)cc(CSc2nc3ccccc3s2)c1O | 0.8754 |
| COc1cccc(-c2cc(=O)c3ccccc3o2)c1N | 0.5617 |

Exercise: Please look at this compound and report its Relative ALP activity: Cc1ccc(S(=O)(=O)/C=C/C#N)cc1
Solution: 0.9356

Exercise: Please look at this compound and report its Relative ALP activity: CC(C)(C)n1nc(-c2ccc(Cl)cc2)c2c(N)ncnc21
Solution: 0.8276

Exercise: Please look at this compound and report its Relative ALP activity: COc1ccc(S(=O)(=O)N(CCO)c2ccccc2CN(C)C/C=C/c2ccc(Cl)cc2)cc1
Solution: 0.7347

Exercise: Please look at this compound and report its Relative ALP activity: Cn1cnc2c(NCc3ccccc3)nc(NCCO)nc21
Solution: 1.142
